target: hVEGF-A (human, UniProt P15692-4 27-191, limits assumed); experiment: cell-based or functional assay
For each record, check the reported Cellular IC50: if it is below 1 nM write TRUE, else write FALSE.

Record excerpt, results attached:
| Binder | Class name |
| --- | --- |
| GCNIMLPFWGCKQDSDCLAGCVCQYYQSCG (designed binder, also called EM54) [VEGF_CKP9.54] | FALSE |
| GCDVMQPYWGCEMDFDCLAGCVCHWYNSCG (designed binder, also called L2.9.63.44) [VEGF_CKP9.63.44] | FALSE |
| GCNIMLPFWGCGQSFECLAGCVCQYYQSCG (designed binder) [VEGF_CKP9.54.1] | FALSE |
| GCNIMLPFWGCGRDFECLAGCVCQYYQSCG (designed binder) [VEGF_CKP9.54.90] | FALSE |

Consider the additional binder presented here.
Please state whether Cellular IC50 is below 1 nM for GCDVMQPYWGCGENFLCLAGCVCHWYNSCG (designed binder, also called L2.9.63.1) [VEGF_CKP9.63.1]
TRUE
